These data points were gathered from paper PMC10897476.

testName: in vivo
runParameters: female, CD-1, mouse, in vivo, po, 30 mg/kg
Description: BDM91288 (5) was dissolved in 10% kleptose hydroxypropyl-β-cyclodextrin in distilled water and administered per os at 30 mg/kg to female CD-1 mice (~25–30 g). The concentration of BDM91288 (5) in plasma and lungs was measured at different time points after administration of a single dose of compounds. […] Samples were analysed using a UPLC system Acquity I Class (Waters), combined with a triple quadrupole mass spectrometer Xevo TQD (Waters). […]
measuredAttribute: half-life

(Q) Fill in: half-life of Clc1cc2cc(N3CCNCC3)ccc2nc1N1CCNCC1 is ___
(A) > 10 h

###

System: K. pneumoniae AcrB^V448E RamR^mut
testName: MIC of antibiotics with and without EPI (REMA), double mutant
Type: cell-based, Klebsiella pneumoniae
runParameters: K. pneumoniae AcrB^V448E RamR^mut; + 100 µM 5
Lab note: compare Minimum Inhibitory Concentration with 8 mg/L, writing satisfied if less and not satisfied if equal or more.

Solved cases below.
CCN1CCN(C(=O)N[C@@H](C(=O)N[C@@H]2C(=O)N3[C@@H]2SC(C)(C)[C@@H]3C(=O)O)c2ccccc2)C(=O)C1=O ... not satisfied
CO/N=C(\C(=O)N[C@@H]1C(=O)N2C(C(=O)[O-])=C(C[N+]3(C)CCCC3)CS[C@H]12)c1csc(N)n1 [Cefepime] ... satisfied
C[C@@H](O)[C@H]1C(=O)N2C(C(=O)O)=C(S[C@@H]3CN[C@H](C(=O)N(C)C)C3)[C@H](C)[C@H]12 ... satisfied

(Q) Bench note: check whether CC(=O)O[C@H]1C[C@@]2(C)[C@@H](C[C@@H](O)[C@H]3[C@@]4(C)CC[C@@H](O)[C@@H](C)[C@@H]4CC[C@@]32C)/C1=C(\CCC=C(C)C)C(=O)O shows Minimum Inhibitory Concentration below 8 mg/L
(A) not satisfied

(Q) Param item: CN(C)[C@@H]1C(O)=C(C(N)=O)C(=O)[C@@]2(O)C(O)=C3C(=O)c4c(O)cccc4[C@@](C)(O)[C@H]3C[C@@H]12
(A) not satisfied

(Q) Param item: C[C@H]1[C@H](NC(=O)/C(=N\OC(C)(C)C(=O)O)c2csc(N)n2)C(=O)N1S(=O)(=O)O
(A) satisfied

###

testName: Pharmacokinetics in mice, single oral dose (plasma, whole lung)
runParameters: female, CD-1, mouse, in vivo, po, 30 mg/kg, Caverage plasma, 24 h; single 30 mg/kg p.o., mice
measuredAttribute: concentration at 24 h (nM)
# number only, unit nM dropped from output

(Q) Fill in: concentration at 24 h of Clc1cc2cc(N3CCNCC3)ccc2nc1N1CCNCC1 is ___
(A) 500

###

Test system: K. pneumoniae AcrB^V448E RamR^mut
testName: MIC of antibiotics with and without EPI (REMA), double mutant
Assay type: cell-based, Klebsiella pneumoniae
runParameters: K. pneumoniae AcrB^V448E RamR^mut; + 100 µM PAβN
measuredAttribute: Minimum Inhibitory Concentration (mg/L)
# number only, unit mg/L dropped from output

Solved cases (2 shown):
C[C@H]1[C@H](NC(=O)/C(=N\OC(C)(C)C(=O)O)c2csc(N)n2)C(=O)N1S(=O)(=O)O ... 0.53
CC(=O)NC[C@H]1CN(c2ccc(N3CCOCC3)c(F)c2)C(=O)O1 ... 128

(Q) Fill in: Minimum Inhibitory Concentration of CCN1CCN(C(=O)N[C@@H](C(=O)N[C@@H]2C(=O)N3[C@@H]2SC(C)(C)[C@@H]3C(=O)O)c2ccccc2)C(=O)C1=O is ___
(A) 43

(Q) Param item: CC(=O)O[C@H]1C[C@@]2(C)[C@@H](C[C@@H](O)[C@H]3[C@@]4(C)CC[C@@H](O)[C@@H](C)[C@@H]4CC[C@@]32C)/C1=C(\CCC=C(C)C)C(=O)O
(A) 107

###

testName: Pharmacokinetics in mice, single oral dose (plasma, whole lung)
runParameters: female, CD-1, mouse, in vivo, po, 30 mg/kg
measuredAttribute: Tmax (h)
# number only, unit h dropped from output

(Q) Fill in: Tmax of Clc1cc2cc(N3CCNCC3)ccc2nc1N1CCNCC1 [compound 5] is ___
(A) 4

###

testName: Pharmacokinetics in mice, single oral dose (plasma, whole lung)
runParameters: female, CD-1, mouse, in vivo, po, 30 mg/kg, Caverage plasma, 4 h; single 30 mg/kg p.o., mice
Procedure: BDM91288 (5) was dissolved in 10% kleptose hydroxypropyl-β-cyclodextrin in distilled water and administered per os at 30 mg/kg to female CD-1 mice (~25–30 g). The concentration of BDM91288 (5) in plasma and lungs was measured at different time points after administration of a single dose of compounds. […] Samples were analysed using a UPLC system Acquity I Class (Waters), combined with a triple quadrupole mass spectrometer Xevo TQD (Waters). […]
measuredAttribute: concentration at 4 h

(Q) Fill in: concentration at 4 h of Clc1cc2cc(N3CCNCC3)ccc2nc1N1CCNCC1 is ___
(A) 2000 nM

###

Test system: K. pneumoniae AcrB^V448E RamR^mut
testName: MIC of antibiotics with and without EPI (REMA), double mutant
Format: cell-based, Klebsiella pneumoniae
runParameters: K. pneumoniae AcrB^V448E RamR^mut; + 100 µM PAβN
Method: MIC experiments were carried out according to the CLSI guidelines (CLSI [2023]). Overnight cultures were diluted to an OD600 = 0.001 in CAMHB followed by addition of efflux pump inhibitors (EPIs) at a final concentration of 100 µM. […] Plates were incubated at 37 °C for up to 20 h. Bacterial viability was evaluated using the resazurin microtitre assay (REMA) and measured by fluorescence using a Tecan Spaert multimode plate reader (Ex: 530 nm Em: 590 nm). […]
// reported Minimum Inhibitory Concentration for each item listed
# number only, unit mg/L dropped from output

Solved cases (2 shown):
C[C@@H](O)[C@H]1C(=O)N2C(C(=O)O)=C(S[C@@H]3CN[C@H](C(=O)N(C)C)C3)[C@H](C)[C@H]12 ... 1.0
CO/N=C(\C(=O)N[C@@H]1C(=O)N2C(C(=O)[O-])=C(C[N+]3(C)CCCC3)CS[C@H]12)c1csc(N)n1 [Cefepime] ... 0.85

(Q) Fill in: Minimum Inhibitory Concentration of CC(C)(O/N=C(\C(=O)N[C@@H]1C(=O)N2C(C(=O)[O-])=C(C[n+]3ccccc3)CS[C@H]12)c1csc(N)n1)C(=O)O is ___
(A) 1.28

###

testName: Pharmacokinetics in mice, single oral dose (plasma, whole lung)
runParameters: female, CD-1, mouse, in vivo, po, 30 mg/kg, Caverage plasma, 0.5 h; single 30 mg/kg p.o., mice
measuredAttribute: concentration at 0.5 h (nM)
# number only, unit nM dropped from output

(Q) Fill in: concentration at 0.5 h of Clc1cc2cc(N3CCNCC3)ccc2nc1N1CCNCC1 [compound 5] is ___
(A) 800

###

testName: Microsomal stability in mouse liver microsomes
Type: in vitro ADME
runParameters: female, CD-1, pH 7.4, read-out: Microsomal stability CLint (intrinsic clearance)
// reported microsomal CLint at 1 μM for each item listed
# number only, unit µL/min/mg dropped from output

NCCNc1ccc2nc(N3CCNCC3)c(Cl)cc2c1 ... 47
Clc1cc2cc(N3CCCCC3)ccc2nc1N1CCNCC1 ... 223

(Q) Fill in: microsomal CLint at 1 μM of N[C@@H]1CCN(c2ccc3nc(N4CCNCC4)c(Cl)cc3c2)C1 is ___
(A) 303

(Q) Param item: Clc1cc2cc(N3CCNCC3)ccc2nc1N1CCNCC1
(A) 6

(Q) Param item: Clc1cc2cc(N3CCOCC3)ccc2nc1N1CCNCC1
(A) 103

(Q) Param item: NCC(=O)Nc1ccc2nc(N3CCNCC3)c(Cl)cc2c1
(A) 2

(Q) Param item: Clc1nc2ccccc2nc1N1CCNCC1
(A) 111

###

// reported Minimum Inhibitory Concentration for each item listed
Tested on: K. pneumoniae AcrB^V448E RamR^mut
testName: MIC of antibiotics with and without EPI (REMA), double mutant
Format: cell-based, Klebsiella pneumoniae
runParameters: K. pneumoniae AcrB^V448E RamR^mut; + 100 µM 5
Mention the unit after the number when you answer.

C[C@H]1COc2c(N3CCN(C)CC3)c(F)cc3c(=O)c(C(=O)O)cn1c23 ... 1.28 mg/L
CC(C)(O/N=C(\C(=O)N[C@@H]1C(=O)N2C(C(=O)[O-])=C(C[n+]3ccccc3)CS[C@H]12)c1csc(N)n1)C(=O)O ... 1.28 mg/L
CC(=O)NC[C@H]1CN(c2ccc(N3CCOCC3)c(F)c2)C(=O)O1 ... 128 mg/L
O=C(N[C@H](CO)[C@H](O)c1ccc([N+](=O)[O-])cc1)C(Cl)Cl ... 128 mg/L
CC[C@H]1OC(=O)[C@H](C)[C@@H](O[C@H]2C[C@@](C)(OC)[C@@H](O)[C@H](C)O2)[C@H](C)[C@@H](O[C@@H]2O[C@H](C)C[C@H](N(C)C)[C@H]2O)[C@](C)(O)C[C@@H](C)CN(C)[C@H](C)[C@@H](O)[C@]1(C)O ... 21 mg/L

Now consider the entry below.
(Q) Fill in: Minimum Inhibitory Concentration of CO[C@@H]1[C@@H](OC(N)=O)[C@@H](O)[C@H](Oc2ccc3c(O)c(NC(=O)c4ccc(O)c(CC=C(C)C)c4)c(=O)oc3c2C)OC1(C)C is ___
(A) 128 mg/L
